Recorded values, source patent US11058688B2.

SYSTEM TESTED: BRD4(49-170) bromodomain (Homo sapiens (Human), UniProt O60885)
PROCEDURE TEXT: BRD4 AlphaScreen Assay
STATED CONDITIONS: binding to biotin-H4(1-21) Ac-K5/8/12/16 peptide
ATTRIBUTE MEASURED: IC50 (µM)

Would you please look over these solved cases?
CNC(=O)N1CCn2c(C3CC(F)(F)C3)nc(-c3cccc4cc(C5CCOCC5)ncc34)c2C1 [Example 85]; 18.1
CNC(=O)N1CCn2c(C3CCOCC3)nc(-c3cccc4cc(-c5cn(C)nc5C)ncc34)c2C1 [Example 70]; 12.3

1. CNC(=O)N1CCn2c(C3CCC(F)(F)CC3)nc(-c3cccc4nc(-c5cnn(C)c5)c(C(F)F)cc34)c2C1 [Example 59]
2. CNC(=O)N1CCn2c(C3CC3)nc(-c3ccnc4cc(-c5cnn(C)c5)c(OC(F)(F)F)cc34)c2C1 [Example 2]
Which has the higher IC50, 1 or 2 ? Pick one; state its label. 1

* * *

SYSTEM TESTED: BRD4(49-170) bromodomain (Homo sapiens (Human), UniProt O60885)
PROCEDURE TEXT: BRD4 AlphaScreen Assay
STATED CONDITIONS: binding to biotin-H4(1-21) Ac-K5/8/12/16 peptide
pIC50: −log10 of the molar value.
ATTRIBUTE MEASURED: pIC50

CNC(=O)N1CCn2c(C3CCC(F)(F)CC3)nc(-c3cccc4cc(C5CCOCC5)ncc34)c2C1; 4.92
CNC(=O)N1CCn2c(C3CC3)nc(-c3cccc4nc(-c5cnn(C)c5)ncc34)c2C1; 4.84
CNC(=O)N1CCn2c(C3CCOCC3)nc(-c3cccc4cc(-c5cnc(C)s5)ncc34)c2C1; 5.46
CC(=O)N1CCn2c(C3CC3)nc(N3CCCc4cc(-c5ccc(=O)n(C)c5)ccc43)c2C1; 5.46

1. CC(=O)N1CCn2c(C3CCOCC3)nc(-c3ccc4c(c3)c(-c3cnn(C)c3)nn4C)c2C1
2. CC(=O)N1CCn2c(C3CC3)nc(-c3ccc4c(c3)c(-c3cnn(C)c3)nn4C)c2C1 [Example 44]
3. CC(=O)N1CCn2c(C3CCOC3)nc(-c3ccc4c(c3)c(-c3cnn(C)c3)nn4C)c2C1 (stereo not shown)
# sort list by recorded pIC50, greatest to least # the answer lists labels in the order requested 1, 3, 2
(1: 5.43, 3: 5.20, 2: 4.92)

* * *

SYSTEM TESTED: BRD4(49-170) bromodomain (Homo sapiens (Human), UniProt O60885)
PROCEDURE TEXT: BRD4 AlphaScreen Assay
STATED CONDITIONS: binding to biotin-H4(1-21) Ac-K5/8/12/16 peptide
pIC50: −log10 of the molar value.
ATTRIBUTE MEASURED: pIC50

CNC(=O)N1CCn2c(C3CCOCC3)nc(-c3c(F)ccc4cc(C5CCOCC5)ncc34)c2C1; 4.71
CC(=O)N1CCn2c(C3CC3)nc(N3CCCc4cc(-c5c(C)noc5C)ccc43)c2C1; 4.99

1. CNC(=O)N1CCn2c(C3CC(F)(F)C3)nc(-c3cccc4cc(-c5cn(C)nc5C)ncc34)c2C1
2. CNC(=O)N1CCn2c(C3CCOCC3)nc(-c3cccc4nc(-c5cnn(C)c5)c(C#N)cc34)c2C1
// pick min by pIC50: 1 , 2 API: response body contains the label of the selected item. 2
(2: 4.64, 1: 4.87)
